Where these numbers come from: the supplement of paper PMC12137928

tested on: HCT116; settings: 72 h; ICRF193 0 nM
Counter-ions that a name gives are not always drawn.
IC50 cell viability values, listed per item
outcome_measure: IC50 cell viability

molecule: C#C[C@]1(O)CC[C@H]2[C@@H]3CCC4=CCCC[C@@H]4[C@H]3CC[C@@]21C [Lynestrenol]
tested_target: HCT116
observed: > 45.8 µM
--
molecule: CC(=O)Oc1ccccc1C(=O)O [Aspirin]
tested_target: HCT116
observed: > 45.8 µM
--
molecule: Cc1c(C)c2c(c(C)c1OC(=O)c1cccnc1)CC[C@@](C)(CCC[C@H](C)CCC[C@H](C)CCCC(C)C)O2 (racemic) [DL-alpha Tocopheryl nicotinate]
tested_target: HCT116
observed: > 45.8 µM
--
molecule: Cc1ccccc1C(=O)N1CC/C(=N\OS(=O)(=O)O)c2ccc(Cl)cc21 [Alilusem potassium]
tested_target: HCT116
observed: > 45.8 µM
--
molecule: CC(=O)O[C@H]1Cc2ccccc2N(C(N)=O)c2ccccc21 [Eslicarbazepine (acetate)]
tested_target: HCT116
observed: > 45.8 µM
--
molecule: Cc1ccccc1N1CCN(CCc2nnc3n2CCCC3)CC1 [Dapiprazole hydrochloride]
tested_target: HCT116
observed: > 45.8 µM
--
molecule: COc1ccccc1OCCNCC(O)COc1cccc2[nH]c3ccccc3c12 (stereo unspecified) [Carvedilol tartrate]
tested_target: HCT116
observed: 20.6 µM
--
molecule: CC/N=C(\NCC)NCCCC[C@H](NC(=O)[C@H](CC(C)C)NC(=O)[C@@H](CCCCN/C(=N/CC)NCC)NC(=O)[C@H](Cc1ccc(O)cc1)NC(=O)[C@H](CO)NC(=O)[C@@H](Cc1cccnc1)NC(=O)[C@@H](Cc1ccc(Cl)cc1)NC(=O)[C@@H](Cc1ccc2ccccc2c1)NC(C)=O)C(=O)N1CCC[C@H]1C(=O)N[C@H](C)C(N)=O [Ganirelix]
tested_target: HCT116
observed: 4.61 µM
--
molecule: C/C(=C(/OCCOc1ccc(Cl)cc1)c1ccc(Cl)cc1Cl)n1ccnc1 [Omoconazole]
tested_target: HCT116
observed: 18.3 µM
--
molecule: CN(C)C(=O)C(CCN1CCC(O)(c2ccc(Cl)cc2)CC1)(c1ccccc1)c1ccccc1 [Loperamide hydrochloride]
tested_target: HCT116
observed: 14.6 µM
--
molecule: Cc1nc(=O)c2cc(CN(C)c3ccc(C(=O)N[C@@H](CCC(=O)O)C(=O)O)s3)ccc2[nH]1 [Raltitrexed]
tested_target: HCT116
observed: > 45.8 µM

* * *

tested on: HCT116; conditions: 72 h; ICRF193 200 nM
Counter-ions that a name gives are not always drawn.
Listed molecules paired with reported IC50 cell viability
outcome_measure: IC50 cell viability

molecule: C[C@@H]1NC(=O)[C@@H](N)CNC(=O)[C@H]([C@H]2CCNC(N)=N2)NC(=O)/C(=C/NC(N)=O)NC(=O)[C@H](CNC(=O)C[C@@H](N)CCCN)NC1=O
outcome_measure: IC50 cell viability
observed: > 45.8 µM
--
molecule: COc1ccc(-c2nc3cc(C4=NNC(=O)CC4C)ccc3[nH]2)cc1 (centres undefined)
outcome_measure: IC50 cell viability
observed: > 45.8 µM
--
molecule: Nc1nc(O)c2ncn(CCC(CO)CO)c2n1
outcome_measure: IC50 cell viability
observed: > 45.8 µM
--
molecule: N[C@H](Cc1c[nH]c2ccccc12)C(=O)O
outcome_measure: IC50 cell viability
observed: > 45.8 µM
--
molecule: C[C@]12CC[C@H]3[C@@H](CCC4=C(O)C(=O)CC[C@@H]43)[C@@H]1CC[C@@H]2OC(=O)CCC1CCCC1 [Oxabolone cipioncate]
outcome_measure: IC50 cell viability
observed: > 45.8 µM
--
molecule: COc1ccc(C(Cl)=C(c2ccc(OC)cc2)c2ccc(OC)cc2)cc1
outcome_measure: IC50 cell viability
observed: 23.1 µM
--
molecule: CCCCC1C(=O)N(c2ccccc2)N(c2ccc(O)cc2)C1=O (centres undefined)
outcome_measure: IC50 cell viability
observed: 9.2 µM
--
molecule: CCC(=O)O[C@@](Cc1ccccc1)(c1ccccc1)[C@@H](C)CN(C)C [Levopropoxyphene napsylate]
outcome_measure: IC50 cell viability
observed: > 45.8 µM
--
molecule: CCCSS/C(CCO)=C(/C)N(C=O)Cc1cnc(C)nc1N
outcome_measure: IC50 cell viability
observed: 29.1 µM
--
molecule: C#C[C@]1(O)C=C[C@H]2[C@@H]3CCC4=CC(=O)CC[C@@H]4[C@H]3CC[C@@]21CC
outcome_measure: IC50 cell viability
observed: > 45.8 µM
--
molecule: CN(C)CCn1nnnc1SCC1=C(C(=O)O)N2C(=O)[C@@H](NC(=O)Cc3csc(N)n3)[C@H]2SC1 [Cefotiam hydrochloride]
outcome_measure: IC50 cell viability
observed: > 45.8 µM
--
molecule: CCN(CC)CCCN(c1ccccc1)C1Cc2ccccc2C1 [Aprindine hydrochloride]
outcome_measure: IC50 cell viability
observed: > 45.8 µM
--
molecule: CCCC(=O)OC(C(Cl)(Cl)Cl)P(=O)(OC)OC (centres undefined) [Butonate]
outcome_measure: IC50 cell viability
observed: > 45.8 µM
--
molecule: COc1ccccc1OCC(O)CN1CCN(CC(=O)Nc2c(C)cccc2C)CC1 (centres undefined)
outcome_measure: IC50 cell viability
observed: > 45.8 µM
--
molecule: CCN(CC)C(=S)SSC(=S)N(CC)CC
outcome_measure: IC50 cell viability
observed: > 45.8 µM
--
molecule: Cc1ccccc1N1C(=O)c2cc(S(N)(=O)=O)c(Cl)cc2NC1C (centres undefined)
outcome_measure: IC50 cell viability
observed: > 45.8 µM
--
molecule: O=C(CCOCCOCCOCCOCCC(=O)Nc1c(I)cc(I)c(C(=O)O)c1I)Nc1c(I)cc(I)c(C(=O)O)c1I
outcome_measure: IC50 cell viability
observed: > 45.8 µM
--
molecule: COc1ccc(CN(C(=O)[C@@H](N)Cc2c(C)cc(C(N)=O)cc2C)[C@@H](C)c2ncc(-c3ccccc3)[nH]2)cc1C(=O)O
outcome_measure: IC50 cell viability
observed: > 45.8 µM
--
molecule: CC(=O)OCC(=O)[C@@]12N=C(C)O[C@@H]1C[C@H]1[C@@H]3CCC4=CC(=O)C=C[C@]4(C)[C@H]3[C@@H](O)C[C@@]12C
outcome_measure: IC50 cell viability
observed: > 45.8 µM
--
molecule: CCCN(CCC)CCc1cccc2c1CC(=O)N2
outcome_measure: IC50 cell viability
observed: > 45.8 µM
--
molecule: CCCCCCCCCCCCCC(=O)OCC(COP(=O)([O-])OCC[N+](C)(C)C)OC(=O)CCCCCCCCCCCCC (racemic)
outcome_measure: IC50 cell viability
observed: > 45.8 µM
--
molecule: C=C1CC[C@@]2(O)[C@H]3Cc4ccc(O)c5c4[C@@]2(CCN3CC2CC2)[C@H]1O5
outcome_measure: IC50 cell viability
observed: > 45.8 µM
--
molecule: CCC(=O)O[C@]1(C(=O)CCl)[C@@H](C)C[C@H]2[C@@H]3C[C@H](F)C4=CC(=O)C=C[C@]4(C)[C@@]3(F)[C@@H](O)C[C@@]21C [Halobetasol Propionate]
outcome_measure: IC50 cell viability
observed: > 45.8 µM
--
molecule: CN(C)C/C=C/C(=O)Nc1cc2c(Nc3ccc(F)c(Cl)c3)ncnc2cc1O[C@H]1CCOC1
outcome_measure: IC50 cell viability
observed: 18.3 µM

* * *

tested on: HCT116; settings: 72 h; ICRF193 200 nM

compound: COC(=O)C1=C(C)NC(C)=C(C(=O)OCC(C)=O)C1c1ccccc1[N+](=O)[O-] (stereo not drawn) [Aranidipine]
tested_target: HCT116
IC50 cell viability: 16.4 µM
//
compound: CC(=O)OCC1=C(C(=O)O)N2C(=O)[C@@H](NC(=O)Cc3cccs3)[C@H]2SC1 [Cephalothin]
tested_target: HCT116
IC50 cell viability: > 45.8 µM
//
compound: C[C@]12CC[C@@H]3c4ccc(O)cc4C[C@@H](CCCCCCCCC[S+]([O-])CCCC(F)(F)C(F)(F)F)[C@H]3[C@@H]1CC[C@@H]2O (stereo partly drawn) [Fulvestrant]
tested_target: HCT116
IC50 cell viability: > 45.8 µM

* * *

system: HCT116; assay: efficacy (maximum % inhibition of viability vs DMSO); higher = more cytotoxic; conditions: 72 h; ICRF193 200 nM
Where a name gives a salt, the structure may show the parent alone.
# label = Y if efficacy >= 70% else N

compound: CNC(=O)c1cc(Oc2ccc(NC(=O)Nc3ccc(Cl)c(C(F)(F)F)c3)c(F)c2)ccn1 [Regorafenib]
assigned_label: Y

compound: C=CCNc1c(O)cc2c(O)c1C[C@@H](C)C[C@H](OC)[C@H](O)[C@@H](C)/C=C(\C)[C@H](OC(N)=O)[C@@H](OC)/C=C\C=C(/C)C(=O)N2 [Retaspimycin (Hydrochloride)]
assigned_label: Y

compound: CC(C)COCC(CN(Cc1ccccc1)c1ccccc1)N1CCCC1 (stereo not drawn) [Bepridil]
assigned_label: Y

compound: CCCSS/C(CCO)=C(/C)N(C=O)Cc1cnc(C)nc1N [Prosultiamine]
assigned_label: N

compound: CC(C)c1nc(CN(C)C(=O)N[C@H](C(=O)N[C@@H](Cc2ccccc2)C[C@H](O)[C@H](Cc2ccccc2)NC(=O)OCc2cncs2)C(C)C)cs1 [Ritonavir]
assigned_label: N

compound: COC(=O)C1=C(C)NC(COC(N)=O)=C(C(=O)OC(C)C)C1c1cccc(Cl)c1Cl (stereo not drawn) [Lemildipine]
assigned_label: Y

compound: C#C[C@]1(O)CC[C@H]2[C@@H]3CCc4cc(OC5CCCC5)ccc4[C@H]3CC[C@@]21C [Quinestrol]
assigned_label: N

compound: CCN(CC)c1ccc(C(=C2C=CC(=[N+](CC)CC)C=C2)c2cc(S(=O)(=O)O)ccc2S(=O)(=O)[O-])cc1 [Isosulfan blue]
assigned_label: Y
